- System: Staphylococcus aureus
- Protocol Summary: Antibacterial activity against Staphylococcus aureus ATCC 29213 assessed as inhibition of visible growth of bacteria incubated for 24 hrs by CLSI protocol based broth-dilution method
- Format: functional
Property Name: MIC (µg/mL)

| Chemical String | Result Unit | MIC |
| --- | --- | --- |
| C=C[C@]1(C)C[C@@H](OC(=O)CSc2cccc(NCc3ccc(B(O)O)cc3)c2)[C@]2(C)[C@H](C)CC[C@]3(CCC(=O)[C@H]32)[C@@H](C)[C@@H]1O | µg/mL | 0.063 |
| C=C[C@]1(C)C[C@@H](OC(=O)CSc2cccc(NC(=O)c3cc(N)cc(B(O)O)c3)c2)[C@]2(C)[C@H](C)CC[C@]3(CCC(=O)[C@H]32)[C@@H](C)[C@@H]1O | µg/mL | 0.063 |

I = C=C[C@]1(C)C[C@@H](OC(=O)CSc2cccc(NC(=O)c3ccc(F)c(B(O)O)c3)c2)[C@]2(C)[C@H](C)CC[C@]3(CCC(=O)[C@H]32)[C@@H](C)[C@@H]1O
II = C=C[C@]1(C)C[C@@H](OC(=O)CSc2cccc(NC(=O)c3cc(F)c(B(O)O)c(F)c3)c2)[C@]2(C)[C@H](C)CC[C@]3(CCC(=O)[C@H]32)[C@@H](C)[C@@H]1O
For the pair I and II , which member has the lower MIC number? Reply with the label of the item you choose.
II

###

- Tested on: Staphylococcus aureus
- Protocol Summary: Antibacterial activity against Staphylococcus aureus ATCC 29213 assessed as inhibition of visible growth of bacteria incubated for 24 hrs by CLSI protocol based broth-dilution method
- Format: functional
Property Name: MIC (µg/mL)

A selection of reference data follows.
| Chemical String | MIC [µg/mL] |
| --- | --- |
| C=C[C@]1(C)C[C@@H](OC(=O)CSc2cccc(NC(=O)c3cccc(B(O)O)c3)c2)[C@]2(C)[C@H](C)CC[C@]3(CCC(=O)[C@H]32)[C@@H](C)[C@@H]1O | 0.063 |
| C=C[C@]1(C)C[C@@H](OC(=O)CSc2cccc(NCc3ccccc3B(O)O)c2)[C@]2(C)[C@H](C)CC[C@]3(CCC(=O)[C@H]32)[C@@H](C)[C@@H]1O | 0.031 |
| C=C[C@]1(C)C[C@@H](OC(=O)CSc2cccc(NCc3cccc(B(O)O)c3)c2)[C@]2(C)[C@H](C)CC[C@]3(CCC(=O)[C@H]32)[C@@H](C)[C@@H]1O | 0.063 |
| C=C[C@]1(C)C[C@@H](OC(=O)CSc2ccc(NC(=O)c3ccc(B(O)O)cc3)cc2)[C@]2(C)[C@H](C)CC[C@]3(CCC(=O)[C@H]32)[C@@H](C)[C@@H]1O | 0.063 |

1 = C=C[C@]1(C)C[C@@H](OC(=O)CSc2cccc(NC(=O)Cc3ccc(B(O)O)cc3)c2)[C@]2(C)[C@H](C)CC[C@]3(CCC(=O)[C@H]32)[C@@H](C)[C@@H]1O
2 = C=C[C@]1(C)C[C@@H](OC(=O)CSc2cccc(NC(=O)c3ccc(B(O)O)c(OC)c3)c2)[C@]2(C)[C@H](C)CC[C@]3(CCC(=O)[C@H]32)[C@@H](C)[C@@H]1O
3 = C=C[C@]1(C)C[C@@H](OC(=O)CSc2ccc(NC(=O)c3ccc4c(c3)B(O)OC4)cc2)[C@]2(C)[C@H](C)CC[C@]3(CCC(=O)[C@H]32)[C@@H](C)[C@@H]1O
4 = C=C[C@]1(C)C[C@@H](OC(=O)CSc2cccc(NC(=O)c3ccc(B(O)O)cc3[N+](=O)[O-])c2)[C@]2(C)[C@H](C)CC[C@]3(CCC(=O)[C@H]32)[C@@H](C)[C@@H]1O
Hey, can you sort those compounds up there by MIC, smallest first? Write the labels out in the order the request specifies.
3, 2, 1, 4
